Details: 303.15 K; 35000 kPa; Liquid
± gives the expanded uncertainty stated by the source.
Known mass density of a selection of molecules
Number first, unit second: that is the form wanted.

Reference set, count: 3
INSERT INTO results (molecule, result) VALUES
  ('CCCCCCCCCCCCCC[P+](CCCCCC)(CCCCCC)CCCCCC.O=S(=O)([N-]S(=O)(=O)C(F)(F)F)C(F)(F)F', '1082.7 ± 1.7 kg/m3'),
  ('CCCCCCCCCCCCCC[P+](CCCCCC)(CCCCCC)CCCCCC.[Cl-] [trihexyl(tetradecyl)phosphonium chloride]', '903 ± 1.8 kg/m3'),
  ('CCCCCCCCCCCCCC[P+](CCCCCC)(CCCCCC)CCCCCC.N#C[N-]C#N [tetradecyl(trihexyl)phosphonium dicyanamide]', '911.6 ± 1.6 kg/m3');

Consider the molecule shown here: CCCCCCCCCCCCCC[P+](CCCCCC)(CCCCCC)CCCCCC.CS(=O)(=O)[O-] [trihexyltetradecylphosphonium methanesulfonate] What is its recorded mass density? 943.8 ± 1.2 kg/m3

Any idea what mass density was measured for CCCCCCCCCCCCCC[P+](CCCCCC)(CCCCCC)CCCCCC.[Br-] [tetradecyltrihexylphosphonium bromide] ? 968.7 ± 0.9 kg/m3

* * *

# reported mass density; entries follow
Settings: 293.15 K; 35000 kPa; Liquid
Give the number; kg/m3 is assumed, so skip it.

INSERT INTO results (compound, measured_number) VALUES
  ('CCCCCCCCCCCCCC[P+](CCCCCC)(CCCCCC)CCCCCC.O=S(=O)([N-]S(=O)(=O)C(F)(F)F)C(F)(F)F', 1089.1),
  ('CCCCCCCCCCCCCC[P+](CCCCCC)(CCCCCC)CCCCCC.N#C[N-]C#N [tetradecyl(trihexyl)phosphonium dicyanamide]', 916.9),
  ('CCCCCCCCCCCCCC[P+](CCCCCC)(CCCCCC)CCCCCC.CS(=O)(=O)[O-] [trihexyltetradecylphosphonium methanesulfonate]', 949.4),
  ('CCCCCCCCCCCCCC[P+](CCCCCC)(CCCCCC)CCCCCC.[Br-] [tetradecyltrihexylphosphonium bromide]', 974.2);

Need mass density of CCCCCCCCCCCCCC[P+](CCCCCC)(CCCCCC)CCCCCC.[Cl-] [trihexyl(tetradecyl)phosphonium chloride] , thanks. 908.3

* * *

Conditions: 303.15 K; 40000 kPa; Liquid
Numbers after ± are expanded uncertainties.
measurement-kind: mass density
Could you write the number and then its unit?

These solved cases illustrate the format of a correct answer.
INSERT INTO assay_data (molecule, result) VALUES
  ('CCCCCCCCCCCCCC[P+](CCCCCC)(CCCCCC)CCCCCC.CS(=O)(=O)[O-] [trihexyltetradecylphosphonium methanesulfonate]', '946.2 ± 1.3 kg/m3'),
  ('CCCCCCCCCCCCCC[P+](CCCCCC)(CCCCCC)CCCCCC.O=S(=O)([N-]S(=O)(=O)C(F)(F)F)C(F)(F)F', '1085.1 ± 1.8 kg/m3'),
  ('CCCCCCCCCCCCCC[P+](CCCCCC)(CCCCCC)CCCCCC.[Cl-] [trihexyl(tetradecyl)phosphonium chloride]', '905.1 ± 1.9 kg/m3');

For the molecule CCCCCCCCCCCCCC[P+](CCCCCC)(CCCCCC)CCCCCC.N#C[N-]C#N [tetradecyl(trihexyl)phosphonium dicyanamide] , what mass density is on record? 913.7 ± 1.7 kg/m3

I would be grateful if you could share the reported mass density for CCCCCCCCCCCCCC[P+](CCCCCC)(CCCCCC)CCCCCC.[Br-] [tetradecyltrihexylphosphonium bromide] . 971 ± 0.9 kg/m3
